test system: T1, Recombinant human MMR (R&D systems) (human, UniProt P22897 19-1383)
T1 construct: Antigen of the PE-ELISA and the SPR; also called hMMR; recombinant hMMR
T1 sequence: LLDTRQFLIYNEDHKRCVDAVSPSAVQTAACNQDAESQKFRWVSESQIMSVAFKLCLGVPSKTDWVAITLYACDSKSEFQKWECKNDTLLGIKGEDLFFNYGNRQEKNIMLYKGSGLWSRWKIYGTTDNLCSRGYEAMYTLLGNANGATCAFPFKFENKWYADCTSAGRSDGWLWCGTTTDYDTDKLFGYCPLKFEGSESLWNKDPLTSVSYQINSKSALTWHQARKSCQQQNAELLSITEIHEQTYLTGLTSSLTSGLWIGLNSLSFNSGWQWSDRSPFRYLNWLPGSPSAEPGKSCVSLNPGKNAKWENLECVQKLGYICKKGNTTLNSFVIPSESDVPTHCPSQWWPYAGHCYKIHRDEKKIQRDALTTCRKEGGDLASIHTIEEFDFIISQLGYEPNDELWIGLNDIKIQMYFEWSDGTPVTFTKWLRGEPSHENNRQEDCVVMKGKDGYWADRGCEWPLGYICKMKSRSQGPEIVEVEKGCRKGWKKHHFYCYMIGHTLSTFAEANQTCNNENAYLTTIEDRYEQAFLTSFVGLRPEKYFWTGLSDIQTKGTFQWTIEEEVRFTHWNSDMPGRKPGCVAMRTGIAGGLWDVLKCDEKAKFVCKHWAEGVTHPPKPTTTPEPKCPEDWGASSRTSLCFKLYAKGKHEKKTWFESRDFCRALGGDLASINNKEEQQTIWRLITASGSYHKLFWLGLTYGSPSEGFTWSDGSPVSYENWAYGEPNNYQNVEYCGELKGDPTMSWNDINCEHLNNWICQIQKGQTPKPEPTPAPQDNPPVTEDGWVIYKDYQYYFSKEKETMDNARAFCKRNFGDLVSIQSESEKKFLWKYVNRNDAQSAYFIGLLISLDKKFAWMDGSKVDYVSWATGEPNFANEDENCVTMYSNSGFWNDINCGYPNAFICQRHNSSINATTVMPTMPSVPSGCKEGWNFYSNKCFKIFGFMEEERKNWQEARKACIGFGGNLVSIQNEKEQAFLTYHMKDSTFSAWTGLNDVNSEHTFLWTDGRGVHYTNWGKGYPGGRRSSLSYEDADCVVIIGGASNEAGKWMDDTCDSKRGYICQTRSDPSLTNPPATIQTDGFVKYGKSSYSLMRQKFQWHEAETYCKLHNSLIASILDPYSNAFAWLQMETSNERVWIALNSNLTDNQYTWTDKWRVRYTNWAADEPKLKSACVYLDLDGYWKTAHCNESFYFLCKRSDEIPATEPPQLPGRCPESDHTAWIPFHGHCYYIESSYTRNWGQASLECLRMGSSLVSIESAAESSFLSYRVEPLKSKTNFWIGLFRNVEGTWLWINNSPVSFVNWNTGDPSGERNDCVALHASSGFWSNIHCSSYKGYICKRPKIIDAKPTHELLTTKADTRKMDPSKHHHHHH
protocol notes: SPR, BIAcore T100; human MMR on CM5 chip, sdAb as analyte
koff: recorded values
Number only, in s⁻¹; omit the unit.

Sample NbhmMMRm17.72 (VHH, Produced from pMECS with C-terminal HA and 6xHis tag) VHH: QVQLQESGGGLVQPGGSLRLSCAASGSIVSINAMGWYRQAPGKQRELVALVTGSGRTNLADSVKGRFTISRDNAKNTVYLQMNSLKPEDTAVYYCNVLVIGPLEGYDYWGQGTQVTVSS — what was its koff?
0.0012

Look at this binder and give its reported koff. NbhMMRm15.43 (VHH, Produced from pMECS with C-terminal HA and 6xHis tag) VHH: QVQLQESGGTLVQPGGSLRLSCAASGSTFSINNMGWYRQAPGKQRELVAGITGGNTHYADSVKGRFTISRDNAKNTMYLQMNGLKPEDTAVYYCNANWGAYWGQGTQVTVSS
0.0059
